- Tested on: S. pneumoniae UC9912
- Assay Summary: MIC by agar dilution, S. pneumoniae UC9912
- Type: cell-based
- Applied Conditions: Streptococcus pneumoniae, Mueller Hinton agar, overnight at 35° C.
- Method: The in vitro activity of compounds of the subject invention may be assessed by standard testing procedures such as the determination of minimum inhibitory concentration (MIC) by agar dilution as described in “Approved Standard. […] The in vitro MICs of test compounds may be determined by a standard agar dilution method. […] Following incubation the Minimum Inhibitory Concentration (MIC μg/ml), the lowest concentration of drug that inhibits visible growth of the microorganism, is read and recorded.
Property Name: MIC (µg/mL)

>  <Compound Structure>
NC(=O)NC[C@H]1CN(c2ccc(C3=NNC(=O)CS3)c(F)c2)C(=O)O1

>  <MIC (µg/mL)>
0.125

$$$$

a = CC(=O)NC[C@H]1CN(c2ccc(C3=NNC(=O)[C@H](C)S3)c(F)c2)C(=O)O1
b = O=C1CSC(c2ccc(N3C[C@H](CNC(=O)C4CC4)OC3=O)cc2F)=NN1
c = CC(=O)NC[C@H]1CN(c2ccc(C3=NN(C)C(=O)CS3)c(F)c2)C(=O)O1
Write the entries in order, lowest recorded MIC first. Response field: labels, in requested order. b, a, c
(b: 0.125 µg/mL, a: 0.25 µg/mL, c: 0.5 µg/mL)
